target: Nicotinamide N-methyltransferase (Homo sapiens); assay: Confirmatory Screen for Target Class Profiling of Small Molecule Inhibitors of Methyltransferases (AID 1745852); details: MTase-Glo luminescence, SAH detection, recombinant enzyme; measured here: NNMT max response; stronger effect = lower value
Decision: activity beneath -10% gives t; activity meeting or exceeding -10% gives f.

| COMPOUND | ASSIGNED_CATEGORY |
| --- | --- |
| CC(C)c1cc(CNc2nc(Nc3cc(C4CC4)[nH]n3)cc(N3CCN(C)CC3)n2)on1 | t |
| C=C[C@H]1[C@H](O[C@@H]2O[C@H](CO)[C@@H](O)[C@H](O)[C@H]2O)OC=C(C(=O)OC)[C@H]1CCOC(=O)c1cc(O)c(O)c(O)c1 | f |
| C=C1C(=O)OC2C1CCC(=C)C1CC(OC(C)=O)C(=C)C12 (configuration not stated) | f |
| CCCCc1nc2cc(/C=C/C(=O)NO)ccc2n1CCN(CC)CC | f |
| Cc1c[nH]c2nccc(Oc3c(F)cc(Nc4cc(Cl)nc(N)n4)cc3F)c12 | t |
| O=C(O)c1ccc(CN2CCC(CN[C@@H]3C[C@H]3c3ccccc3)CC2)cc1 | f |
| C[C@]12C[C@@H](O)[C@@H]3C[C@@]1(O[C@@H]1O[C@H](CO)[C@@H](O)[C@H](O)[C@H]1O)[C@]3(COC(=O)c1ccccc1)C(=O)O2 | f |
| CCN(CC)CCN(Cc1ccc(-c2ccc(C(F)(F)F)cc2)cc1)C(=O)Cn1c(SCc2ccc(F)cc2)nc(=O)c2c1CCC2 | t |
| Cc1ncc(CCCN(C)C)cc1Nc1ncc2c(n1)-c1ccc(C(F)(F)F)cc1NC(=S)C2 | t |
| Cc1nc([C@](C)(O)CO)sc1-c1cnc(N)c(O[C@H](C)c2cc(F)ccc2-n2nccn2)c1 | t |
| CC(C)c1cccc2c(-c3ccccc3)cc(-c3ccc(-c4ccc(C(=O)O)cc4)[nH]3)nc12 | t |
| CN(C)c1nc(NC2CCC(NCCc3ccc(Br)cc3OC(F)(F)F)CC2)nc2ccccc12 (configuration not stated) | t |

====

system: PA-1; test: Primary qHTS to identify gynecologic anti-cancer compounds using libraries of approved drugs and bioactive compounds (AID 1345084); conditions: Gynecologic cancer cell panel viability, ATPlite luminescence, 48 h; series mostly up to 57.5 µM; also: nearly all actives have a fitted effect of over 55% in size
Inconclusive results are not listed. Calls of active or inactive are those of the source. Calls follow the shape of the dose curve; as a rule, active = well fitted cell-killing curve with a large enough effect; inconclusive = small, poorly fitted or top-dose-only effect, or effect the other way; inactive = flat fitted curve, though single readings scatter.
Possible outcomes: t (active), f (inactive)

| MOLECULE | STUDY_SYSTEM | ASSIGNED_CATEGORY |
| --- | --- | --- |
| CCN1CCN(Cc2ccc(NC(=O)c3ccc(C)c(NC(=O)c4cncc(-c5cccs5)c4)c3)cc2C(F)(F)F)CC1 | PA-1 | t |
| C/C=C/C1=CC2=C(CO1)C(=O)C(C)(O)C(OC(=O)c1c(C)cc(OC)cc1O)C2 (stereo unspecified) | PA-1 | f |
| CC1(C)CCC(C)(C)c2cc(C3(c4ccc(C(=O)O)cc4)OCCO3)ccc21 | PA-1 | f |
| CC(Oc1cc(-n2cnc3ccc(CN4CCN(C)CC4)cc32)sc1C(N)=O)c1ccccc1C(F)(F)F (stereo unspecified) | PA-1 | t |
| COc1cc(O)c([C@@H](CC(=O)N2CC(C)CC(C)C2)c2ccc3c(c2)OCO3)c(OC)c1 (stereo partly specified) | PA-1 | f |
| CC(=O)N[C@@H](C(=O)O[C@H]1CCC(C)(C)[C@@H]2CCC3=C(COC3=O)[C@@]12C)C(C)C | PA-1 | f |
| C=C1CN(Cc2ccc(C(=O)Nc3ccccc3N)cc2)C(=O)c2ccccc21 | PA-1 | t |
| Cc1ccc(Cc2c(C)nc3nc(SCC(=O)NCCN4CCNCC4)nn3c2C)cc1 | PA-1 | f |
| COC(=O)C1=COC(O[C@@H]2O[C@H](CO)[C@@H](O)[C@H](O)[C@H]2O)[C@H]2[C@@H]1[C@H](OC(=O)CCc1ccc(O)cc1)C[C@]2(C)O (stereo partly specified) | PA-1 | f |
| Cn1nc(C(C)(C)C)cc1C(=O)NC(Cc1cccc(Cl)c1)C(=O)NCC#N (stereo unspecified) | PA-1 | f |
| C[C@@H]1C(=O)O[C@H]2[C@H](O)C34[C@H]5C[C@@H](C(C)(C)C)C36[C@@H](OC(=O)[C@@H]6O)O[C@@]4(C(=O)O5)[C@@]12O (stereo partly specified) | PA-1 | f |
| CC(c1ncncc1F)C(O)(Cn1cncn1)c1ccc(F)cc1F (stereo unspecified) | PA-1 | f |
| CC(NC(=O)CCc1nc2ccccc2c(=O)[nH]1)c1ccccc1 (stereo unspecified) | PA-1 | f |
| CCc1cccc(CC)c1NC(=O)c1nn(C)c2c1CCc1cnc(Nc3ccc(C(=O)NC4CCN(C)CC4)cc3OC(F)(F)F)nc1-2 | PA-1 | f |
| COC(=O)CCC(=O)OC[C@]1(C)CCC[C@@]2(C)C3CC[C@]4(C)C=CC3(CCC12)C4 (stereo partly specified) | PA-1 | f |
| O=C(O)c1ccc(OC2OC(CO)C(O)C(O)C2O)cc1 (stereo unspecified) | PA-1 | f |
| C=C1C(OC(C)=O)CCC2(C)CC3(OC)OC(=O)C(C)=C3CC12 (stereo unspecified) | PA-1 | f |
| O=C(O)c1cc(I)ccc1NC(=O)[C@H](Cc1ccccc1)NCc1ccccc1 | PA-1 | f |
| COc1cc2nc(N3CCCC3)nc(NCCCCCN3CCCC3)c2cc1OC | PA-1 | t |
| COc1ccc(CCO[C@@H]2CCCC[C@H]2N2CC[C@@H](O)C2)cc1OC | PA-1 | f |
| CC(C)=CCC/C(C)=C/CO[C@@H]1O[C@H](CO)[C@@H](O)[C@H](O)[C@H]1O | PA-1 | f |

====

Known max response of a selection of compounds
system: KB-3-1; test: Cytotoxic Profiling of Annotated Libraries Using Quantitative High-Throughput Screening (AID 1296008); settings: Five cell lines viability, CellTiter-Glo ATP luminescence, 48-72 h; stronger effect = lower value; also: % is scaled to controls: 0 for no effect and ±100 for the full control effect; nearly all actives have a fitted effect of over 60% in size
Inconclusive results are not listed.

| COMPOUND | max response [%] |
| --- | --- |
| Cc1ccc(S(=O)(=O)n2ccc(-c3c(-c4ccc(Cl)cc4)noc3C)n2)cc1 | -24.7 |
| O=C1OCC(c2ccccc2)=C1Cc1ccccc1 | -0.0133 |
| O=C(NCc1cccc(O)c1)c1cc2cc(F)ccc2[nH]1 | -5.86 |
| CC(C)c1ccc2c(c1)C(=O)CC1[C@@](C)(C(=O)O)CCC[C@]21C (some centres not stated) | -10.5 |
| OCCc1ccc(O[C@@H]2O[C@H](CO)[C@@H](O)[C@H](O)[C@H]2O)cc1 | -1.98 |
| C/C1=C\[C@H]2OC(=O)[C@@H](C)[C@@H]2CC/C(C(=O)O)=C/CC1 | -0.178 |
| COC(=O)c1ccccc1O[C@@H]1O[C@H](CO)[C@@H](O)[C@H](O)[C@H]1O[C@@H]1O[C@@H](C)[C@H](O)[C@@H](O)[C@H]1O | 3.4 |
| C=C(C)C1CCC2(C(=O)O)CCC3(C(=O)O)C(CCC4C5(C)CCC(O)C(C)(C(=O)O)C5CCC43C)C12 (configuration not stated) | -7.04 |
| C[C@@H]1O[C@@H](OC[C@H]2O[C@@H](Oc3cc(O)cc4c3C(=O)C(O)(Cc3ccc(O)cc3)O4)[C@H](O)[C@@H](O)[C@@H]2O)[C@H](O)[C@H](O)[C@H]1O (some centres not stated) | 8.25 |
| CC(C)(O)/C=C/C1=CC(=O)[C@@](C)(O)C[C@H]1O | 7.85 |
| CC1CCC2(OC1)OC1CC3C4CC=C5CC(O)CC(O[C@@H]6OC[C@@H](O)[C@H](O)[C@H]6O)C5(C)C4CCC3(C)C1(O)C2C (some centres not stated) | 5.9 |
| CC(C)C[C@H](CC(=O)NO)C(=O)N[C@@H](Cc1ccc2ccccc2c1)C(=O)N[C@@H](C)C(=O)NCCN | 7.03 |
| FC(F)(F)c1cc(-c2ncn(/C=C\c3nnco3)n2)cc(C(F)(F)F)c1 | -19.3 |
| CC1=C(CCC(C)CC(=O)O)[C@@]2(C)CCCC(C)(C)C2CC1=O (some centres not stated) | -1.22 |
| COc1cc(C2Oc3c(OC)cc(CCCO)cc3C2CO)ccc1O[C@H]1O[C@H](C)[C@@H](O)[C@H](O)[C@@H]1O (some centres not stated) | -4.42 |
| COc1c2c(c(C)c3c1C(=O)OC3)OC1(C)CC(O)C34OC(OC)(CC(OC(C)=O)C3(C)C1C2)OC4(C)C (configuration not stated) | 1.81 |
| C[C@H](NC(=O)CCc1nc2ccccc2c(=O)[nH]1)c1ccccc1 | -7.76 |
